# tested-on: T1, HLA-A*03:01 (human)
# T1 construct: Peptide-receptive MHC class I monomer in the UV-ligand exchange assay
# assay-procedure: UV peptide exchange, anti-b2m ELISA; exchange yield grade
Readings of peptide exchange yield for the listed binders
measure-name: peptide exchange yield

INSERT INTO assay_data (binder, data_value) VALUES
  ('VVRASSGLK', '50 to 75%'),
  ('SLFGGLFTR', '≥ 75%'),
  ('LSGPVTFLR', '50 to 75%'),
  ('TVATQVATSK', '50 to 75%'),
  ('TTLENLPQK', '50 to 75%'),
  ('VIFLHQPPK', '≥ 75%'),
  ('RVIEVVMNSK', '≥ 75%'),
  ('GSCSFALSR', '≥ 75%'),
  ('ILAPPAILK', '≥ 75%'),
  ('MIFSGVFLR', '≥ 75%'),
  ('KLIAGLIFLK', '50 to 75%'),
  ('ILAASFQAR', '50 to 75%'),
  ('SLFPYFLNK', '≥ 75%'),
  ('LIAGLIFLK', '50 to 75%'),
  ('AVFVNWEQTKK', '≥ 75%'),
  ('RTLPLEGSPK', '50 to 75%');
